Molecular target: HCV replicon
Test: HCV replicon assay (luciferase)
Settings: 5-2 Luc replicon cells, 24 hours with compound, luciferase emission; first symbol of Replicon/Western
Protocol: In one embodiment, the inhibitory activity of the compounds can be confirmed in a replicon assay that assesses the ability of a test compound to block or inhibit HCV replication in replicon cells. […] The inhibitory activity of certain exemplary compounds of the invention was confirmed using an HCV replicon assay. […] After 5 min of incubation at room temperature, luciferin emission was quantified with a luminometer. […]
pIC50: −log10 of the molar value.
# pIC50 per record follows

O=C(Nc1cccc(-c2cc(-c3ccccc3-c3ccccc3)no2)c1)C(Cl)Cl [Compound 123] | ≥ 5.00
O=C(Nc1cccc(-c2cc(-c3c(O)cccc3Cl)no2)c1)C(Cl)Cl [Compound 83] | ≥ 5.00
O=C(Nc1cccc(-c2cc(-c3cccc(Cl)c3Cl)no2)c1)C(Cl)Cl [Compound 3] | < 5.00
O=C(Nc1cccc(-c2cc(-c3c(C4CCCC4)cccc3C(F)(F)F)no2)c1)C(Cl)Cl [Compound 105] | ≥ 5.00
O=C(O)c1ccccc1-c1cc(-c2cccc(NC(=O)C(Cl)Cl)c2)on1 [Compound 157] | < 5.00

Q: Need pIC50, item Cc1c(NC(=O)C(Cl)Cl)cccc1-c1cc(-c2c(Cl)cccc2Cl)no1 [Compound 167]
A: < 5.00

Q: Likewise for O=C(Nc1cccc(-c2cc(-c3ccccc3C(F)(F)F)no2)c1)C(Cl)Cl [Compound 33] ?
A: ≥ 5.00

Q: Entry O=C(Nc1cccc(-c2cc(-c3c(Cl)cccc3Cl)on2)c1)C(Cl)Cl [Compound 5] please
A: ≥ 5.00

----------
molecular target: HCV replicon; assay: HCV replicon assay (luciferase); settings: 5-2 Luc replicon cells, 24 hours with compound, luciferase emission; first symbol of Replicon/Western
readout-kind: IC50

Some entries whose results are on file:
COC(=O)c1ccc(Cl)c(-c2cc(-c3cccc(NC(=O)C(Cl)Cl)c3)on2)c1Cl | > 10 µM
CCOC(=O)C1CCN(c2cccc(Cl)c2-c2cc(-c3cccc(NC(=O)C(Cl)Cl)c3)on2)CC1 | > 10 µM
O=C(Nc1cccc(-c2cc(-c3ccccc3OCc3ccccc3)no2)c1)C(Cl)Cl | > 10 µM
O=C(Nc1cccc(-c2cc(-c3c(Cl)cc(OCCN4CCOCC4)cc3Cl)no2)c1)C(Cl)Cl | > 10 µM
O=C(Nc1cccc(-c2cc(-c3c(Cl)cc(OCCN4CCCCC4)cc3Cl)no2)c1)C(Cl)Cl | ≤ 10 µM
O=C(Nc1ccc(S(=O)(=O)NN2CCOCC2)c(-c2cc(-c3c(Cl)cccc3Cl)no2)c1)C(Cl)Cl | ≤ 10 µM
O=C(Nc1cccc(-c2cc(-c3c(F)cccc3Cl)no2)c1)C(Cl)Cl | ≤ 10 µM
O=C(Nc1cccc(-c2cc(-c3c(Cl)ccc(Cl)c3Cl)no2)c1)C(Cl)Cl | > 10 µM

Q: Fill blank: measured IC50 of the compound O=C(Nc1cccc(-c2cc(-c3c(C4CC4)cccc3C(F)(F)F)no2)c1)C(Cl)Cl is ____.
A: ≤ 10 µM

Q: Do the same for Cc1cccc(Cl)c1-c1cc(-c2cccc(NC(=O)C(Cl)Cl)c2)on1 please
A: ≤ 10 µM

----------
target: HCV replicon; assay: HCV replicon assay (luciferase); conditions: 5-2 Luc replicon cells, 24 hours with compound, luciferase emission; first symbol of Replicon/Western
pIC50: −log10 of the molar value.
This section presents compounds with their documented pIC50 values.

Completed entries (count: 5):
O=C(Nc1cccc(-c2cc(-c3c(Cl)cc(Cl)cc3OCCN3CCOCC3)no2)c1)C(Cl)Cl | < 5.00
O=C(Nc1cccc(-c2cc(-c3c(Cl)cc(OCCCN4CCOCC4)cc3Cl)no2)c1)C(Cl)Cl | ≥ 5.00
O=C(Nc1cccc(-c2cc(-c3c(Cl)cccc3-n3ccnc3)no2)c1)C(Cl)Cl | ≥ 5.00
COc1cccc(C)c1-c1cc(-c2cccc(NC(=O)C(Cl)Cl)c2)on1 | ≥ 5.00
Cc1cc(C)c(-c2cc(-c3cccc(NC(=O)C(Cl)Cl)c3)on2)c(C)c1 | ≥ 5.00

Q: Consider the compound shown here: CSc1cccc(F)c1-c1cc(-c2cccc(NC(=O)C(Cl)Cl)c2)on1 What is its recorded pIC50?
A: ≥ 5.00

Q: Input O=C(Nc1cc(-c2cc(-c3c(Cl)cccc3Cl)no2)ccc1N1CCOCC1)C(Cl)Cl
A: < 5.00

Q: Input COc1cccc(F)c1-c1cc(-c2cccc(NC(=O)C(Cl)Cl)c2)on1
A: ≥ 5.00
